I'd be grateful if you could share measured IC50 for these entries.
- TARGET_ENTITY: Human MGAT-2 (Homo sapiens, UniProt Q3SYC2)
- Construct: made in house; host or cells: Sf9 cells (membrane preparation)
- Sequence (Q3SYC2 whole entry): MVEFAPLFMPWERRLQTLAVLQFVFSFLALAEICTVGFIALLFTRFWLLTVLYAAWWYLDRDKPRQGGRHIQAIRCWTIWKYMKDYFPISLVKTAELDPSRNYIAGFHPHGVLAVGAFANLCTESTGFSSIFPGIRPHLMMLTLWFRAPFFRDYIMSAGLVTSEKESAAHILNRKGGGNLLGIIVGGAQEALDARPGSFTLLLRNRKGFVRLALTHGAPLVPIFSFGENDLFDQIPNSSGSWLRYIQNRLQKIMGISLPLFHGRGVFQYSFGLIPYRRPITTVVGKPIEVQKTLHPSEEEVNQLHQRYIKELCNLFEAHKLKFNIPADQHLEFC
- EXPERIMENT_SUMMARY: MGAT LCMS Assay
- Type: biochemical
- CONDITION_DETAILS: human MGAT2 membranes expressed in Sf9 cells; 100 μM 2-oleoylglycerol, 15 μM oleoyl-coenzyme A; read-out: h-MGAT LCMS IC50
Numbers only, in nM.

Examples with answers:
{"columns": ["MOLECULE", "RESULT"],
 "data": [
  ["CCOc1cc(OCCCC(F)(F)F)ccc1-c1cc(-c2ccc(C)cc2)c(C(=O)NS(=O)(=O)C2CC2)c(=O)[nH]1 [Example 126]", 43],
  ["CCOc1ccc(NC(=O)c2c(-c3ccc(C)cc3)cc(-c3ccc(OCCCC(F)(F)F)cc3)[nH]c2=O)cc1 [Example 5]", 21],
  ["Cc1ccc(-c2cc(-c3ccc(OCCCCCC(F)(F)F)cc3C(F)(F)F)[nH]c(=O)c2-c2nnn[nH]2)cc1 [Example 134]", 3]
]}

Continue with the molecule presented below.
q: Consider the molecule COc1ccc(NC(=O)c2c(-c3ccc(C)cc3)cc(-c3nc(-c4ccccc4)oc3C)[nH]c2=O)cc1 [Example 4] . State its measured IC50.
a: 5

###

- TARGET_ENTITY: Human MGAT-2 (Homo sapiens)
- Construct: made in house; host or cells: Sf9 cells (membrane preparation)
- EXPERIMENT_SUMMARY: MGAT LCMS Assay
- Format: biochemical
- CONDITION_DETAILS: human MGAT2 membranes expressed in Sf9 cells; 100 μM 2-oleoylglycerol, 15 μM oleoyl-coenzyme A; read-out: h-MGAT LCMS IC50
PROPERTY: IC50
Answers without a unit are incomplete; give the number and then its unit.

{"columns": ["MOLECULE", "TARGET_ENTITY", "PROPERTY", "RESULT"],
 "data": [
  ["CCc1ccc(-c2cc(-c3ccc(OCCCC(F)(F)F)cc3F)[nH]c(=O)c2C(=O)Nc2ccc(OC(F)(F)F)cc2)s1 [Example 116]", "Human MGAT-2 (Homo sapiens)", "IC50", "17 nM"],
  ["Cc1ccc(-c2cc(-c3ccc(OCCCCCC(F)(F)F)c(C)c3)[nH]c(=O)c2-c2nnn[nH]2)cc1 [Example 70]", "Human MGAT-2 (Homo sapiens)", "IC50", "97 nM"]
]}

Look at each molecule and report its IC50.
1. CCCCCc1ccc(-c2cc(-c3ccc(C)cc3)c(NC(=O)c3ccccc3)c(=O)[nH]2)cc1 [Example 14]
2. CN(C)c1ncc(-c2cc(-c3ccc(OCCCC(F)(F)F)cc3)[nH]c(=O)c2-c2nnn[nH]2)s1 [Example 68]

a:
1: 100 nM; 2: 673 nM

###

- TARGET_ENTITY: Human MGAT-2 (Homo sapiens, UniProt Q3SYC2)
- Construct: made in house; host or cells: Sf9 cells (membrane preparation)
- EXPERIMENT_SUMMARY: MGAT LCMS Assay
- Assay type: biochemical
PROPERTY: IC50 (nM)
One number for each entry, in nM.

q: Consider the compound `CCc1ccc(-c2cc(-c3ccc(OCCCCCC(F)(F)F)cc3C(F)(F)F)[nH]c(=O)c2-c2nn[nH]n2)s1` . State its measured IC50.
a: 0.3

###

I'd be grateful if you could share measured IC50 for these entries.
- TARGET_ENTITY: Human MGAT-2 (Homo sapiens, UniProt Q3SYC2)
- Construct: made in house; host or cells: Sf9 cells (membrane preparation)
- EXPERIMENT_SUMMARY: MGAT LCMS Assay
- Format: biochemical
- CONDITION_DETAILS: human MGAT2 membranes expressed in Sf9 cells; 100 μM 2-oleoylglycerol, 15 μM oleoyl-coenzyme A; read-out: h-MGAT LCMS IC50
Numbers only, in µM.

{"columns": ["ENTRY_SMILES", "IC50, µM"],
 "data": [
  ["O=c1[nH]c(-c2ccc(OCCCCC(F)(F)F)cc2)cc(-c2ccc(C3CC3)s2)c1-c1nnn[nH]1", 0.027],
  ["CCOc1ccc(NC(=O)c2c(-c3ccc(C)cc3)c(C)c(C3CCCCC3)[nH]c2=O)cc1", 0.072],
  ["CC(C)(C)c1ccc(-c2cc(-c3ccc(OCCCC(F)(F)F)cc3)[nH]c(=O)c2C(=O)O)cc1", 0.461],
  ["Cc1ccc(-c2c(Br)c(-c3ccc(OCCCC(F)(F)F)cc3)[nH]c(=O)c2-c2nn[nH]n2)cc1C", 0.311],
  ["O=c1[nH]c(-c2ccc(OCCCCCC(F)(F)F)cc2F)cc(-c2ccn(CC3CC3)n2)c1-n1nn[nH]c1=O", 0.373],
  ["O=C(NS(=O)(=O)C1CC1)c1c(-c2ncc(C3CC3)s2)cc(-c2ccc(OCCCC(F)(F)F)cc2F)[nH]c1=O", 0.013]
]}

q: Consider the molecule `O=c1[nH]c(-c2ccc(OCCCCCC(F)(F)F)cc2F)cc(-c2ccc(C(F)F)cc2)c1-c1nnn[nH]1` . State its measured IC50.
a: 0.004

###

- TARGET_ENTITY: Human MGAT-2 (Homo sapiens)
- Construct: made in house; host or cells: Sf9 cells (membrane preparation)
- EXPERIMENT_SUMMARY: MGAT LCMS Assay
- Format: biochemical
- CONDITION_DETAILS: human MGAT2 membranes expressed in Sf9 cells; 100 μM 2-oleoylglycerol, 15 μM oleoyl-coenzyme A; read-out: h-MGAT LCMS IC50
PROPERTY: log10 of IC50 (log10 of the value in nM)
Each number you see is log10 of IC50, and the unit inside the log is nM.

Examples with answers:
{"columns": ["COMPOUND", "log10 of IC50"],
 "data": [
  ["CCCCCc1ccc(-c2cc(-c3ccc(C)cc3)c(C(=O)Nc3cccnc3)c(=O)[nH]2)cc1 [Example 23]", 1.38],
  ["CCOc1ccc(NC(=O)c2c(-c3ccc(N(C)C)cc3)cc(C3(F)CCCCC3)[nH]c2=O)cc1 [Example 39]", 2.14],
  ["O=c1[nH]c(-c2ccc(CCCCC(F)(F)F)cc2F)cc(-c2ccn(C3CCC3)n2)c1-c1nnn[nH]1 [Example 103]", 1.41]
]}

Look at each compound and report its log10 of IC50.
1. CCC/C=C/c1ccc(-c2cc(-c3ccc(N(C)C)cc3)c(-c3nn[nH]n3)c(=O)[nH]2)cc1 [Example 80]
2. CS(=O)(=O)NC(=O)c1c(-c2ccn(CC3CC3)n2)cc(-c2ccc(OCCCC(F)(F)F)cc2)[nH]c1=O [Example 98]
3. O=c1[nH]c(-c2ccc(OCCCC(F)(F)F)cc2)cc(-c2ccn(C3CC3)n2)c1-c1nn[nH]n1 [Example 76]
4. CC1(C)CC=C(c2ccc(-c3cc(-c4ccn(CC5CC5)n4)c(-c4nn[nH]n4)c(=O)[nH]3)cc2)CC1 [Example 170]
5. CS(=O)(=O)NC(=O)c1c(-c2ccc(OC(F)F)cc2)cc(-c2ccc(OCCCCCC(F)(F)F)cc2)[nH]c1=O [Example 71]
6. CCOc1cc(OCCCC(F)(F)F)ccc1-c1cc(-c2ncc(C3CC3)s2)c(-c2nnn[nH]2)c(=O)[nH]1 [Example 137]

a:
1. 2.23
2. 2.52
3. 1.94
4. 1.23
5. 1.18
6. 0.70

###

- TARGET_ENTITY: Human MGAT-2 (Homo sapiens)
- Construct: made in house; host or cells: Sf9 cells (membrane preparation)
- EXPERIMENT_SUMMARY: MGAT LCMS Assay
- Type: biochemical
- CONDITION_DETAILS: human MGAT2 membranes expressed in Sf9 cells; 100 μM 2-oleoylglycerol, 15 μM oleoyl-coenzyme A; read-out: h-MGAT LCMS IC50
- Protocol: Assay plates were run through a fully automated robotics system and shaken for 5 seconds every minute for a total 10 minutes. The reactions were then quenched with 120 μL of ice cold methanol containing 1 μg/mL 1,2-distearoyl-rac-glycerol as the internal standard. Plates were shaken for 2 minutes and spun down to remove protein precipitation. After the spin, samples were transferred to LC/MS compatible PCR plates. […]
I'd be grateful if you could share measured pIC50 for these entries.
Give bare numbers, as −log10 of the molar value.

Look at each compound and report its pIC50.
1. Cc1ccc(-c2cc(-c3ccc(OCCCC(F)(F)F)cc3Cl)[nH]c(=O)c2C(=O)Nc2ccc(OC(F)(F)F)cc2)cc1
2. CCc1ccc(-c2cc(-c3ccc(OCCCC(F)(F)F)cc3Cl)[nH]c(=O)c2-c2nnn[nH]2)s1
3. CCOc1ccc(NC(=O)c2c(-c3ccc(C)cc3)c(C)c(-c3ccc(OCCCC(F)(F)F)cc3)[nH]c2=O)cc1
4. CCCC1CC=C(c2ccc(-c3cc(-c4ccn(CC5CC5)n4)c(-c4nn[nH]n4)c(=O)[nH]3)cc2)CC1 (stereo not shown)
5. CCOc1ccc(NC(=O)c2c(-c3cnc(N(C)C)s3)cc(C3(O)CCCCC3)[nH]c2=O)cc1
6. Cc1ccc(-c2cc(-c3ccc(OCCCC(F)(F)F)cc3)[nH]c(=O)c2-c2nnn[nH]2)cc1C
7. CCOc1ccc(NC(=O)c2c(-c3cnc(N(C)C)s3)cc(C3(F)CCCCC3)[nH]c2=O)cc1

a:
[7.85, 8.40, 7.41, 7.24, 6.53, 6.96, 7.77]

Look at each compound and report its pIC50.
1. O=C(NS(=O)(=O)C1CC1)c1c(-c2ccn(CC3CC3)n2)cc(-c2ccc(OCCCCCC(F)(F)F)cc2C(F)(F)F)[nH]c1=O
2. CS(=O)(=O)NC(=O)c1c(-c2ccn(CC3CC3)n2)cc(-c2ccc(OCCCCCC(F)(F)F)cc2)[nH]c1=O
3. CCOc1ccc(NC(=O)c2c(-c3ccc(C)cc3)cc(-c3ccc(OCCCC(F)(F)F)cc3F)[nH]c2=O)cc1
4. CCc1ccc(-c2cc(-c3ccc(CCC4CC4)cc3)[nH]c(=O)c2-c2nn[nH]n2)s1
5. O=c1[nH]c(-c2ccc(OCCCC(F)(F)F)cc2)cc(-c2cc3ccccc3s2)c1-c1nnn[nH]1

a:
7.92
7.64
7.85
8.00
7.54
